# Target or test system: furin, P09958;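 also: purified furin at 1:10 enzyme:substrate in 50 mM HEPES pH 7.5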
# Sequence (P09958 whole entry): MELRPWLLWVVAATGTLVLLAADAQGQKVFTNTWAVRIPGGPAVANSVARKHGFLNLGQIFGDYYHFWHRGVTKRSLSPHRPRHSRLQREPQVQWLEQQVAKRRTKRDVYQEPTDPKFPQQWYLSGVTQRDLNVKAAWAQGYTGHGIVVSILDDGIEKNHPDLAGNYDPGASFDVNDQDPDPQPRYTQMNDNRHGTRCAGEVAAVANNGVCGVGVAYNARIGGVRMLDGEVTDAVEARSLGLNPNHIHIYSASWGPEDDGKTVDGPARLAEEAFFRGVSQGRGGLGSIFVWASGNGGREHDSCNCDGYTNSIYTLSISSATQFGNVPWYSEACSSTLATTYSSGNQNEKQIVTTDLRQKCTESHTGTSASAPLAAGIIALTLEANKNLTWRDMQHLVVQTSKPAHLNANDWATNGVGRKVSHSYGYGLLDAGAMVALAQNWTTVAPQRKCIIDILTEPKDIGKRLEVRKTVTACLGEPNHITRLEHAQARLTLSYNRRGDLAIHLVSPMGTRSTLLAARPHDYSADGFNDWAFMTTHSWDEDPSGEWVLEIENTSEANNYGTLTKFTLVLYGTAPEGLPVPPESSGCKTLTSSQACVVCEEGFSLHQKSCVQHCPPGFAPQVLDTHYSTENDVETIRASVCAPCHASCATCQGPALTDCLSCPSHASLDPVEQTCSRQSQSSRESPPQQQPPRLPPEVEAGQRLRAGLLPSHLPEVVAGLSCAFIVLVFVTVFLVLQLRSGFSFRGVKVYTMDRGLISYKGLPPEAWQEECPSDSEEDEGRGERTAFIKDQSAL
# Protocol notes: furin cleavage Z-score vs untreated control; higher = more cleavage, active = 3.5 or more, inactive = 1 or less, 8 variable residues between constant flanks
# Measurement conditions: 15 min
Some of the results follow. The true hit rate is not given.
Observable: furin cleavage Z-score
API note: the answer field is a bare number with no unit suffix.

Can you look up the measured furin cleavage Z-score of CARDPRAAIQAGNASASA [FS-2905] for me?
-0.144

Now the same for CARRGRPGLKAGNASASA [FS-2066]
-1.08

Now the same for CARKARYAIQAGNASASA [FS-1901]
3.07

Now the same for CARRGRAARHAGNASASA [FS-1609]
6.27

Now the same for CAEDAASLRAAGNASASA [HC1536]
0.0869

Now the same for CAMEECSQHKAGNASASA [HC1774]
0.0797
